Recorded Inhibition for the following molecules
tested on: Plasmodium falciparum; assay: GSK_TCMDC: Inhibition of Plasmodium falciparum 3D7 in whole red blood cells, using parasite LDH activity as an index of growth. Test compounds present at 2uM; assay type: functional
# number then unit; no other words

Some molecules with known Inhibition results, for comparison:
COc1ccc2nccc([C@@H](O)CN3CCC(NCc4ccc5c(c4)NC(=O)CS5)CC3)c2c1.O=C(O)C(=O)O: 100%
CCCN(c1ccc(O)c(CN2CCCCC2)c1)c1ccc([N+](=O)[O-])cn1.O=C(O)C(=O)O: 99%
CCN(CC)/C(=N\CCCCCC/N=C(\NC(=N)c1ccc(Cl)cc1)N(CC)CC)NC(=N)c1ccc(Cl)cc1: 97%

// query Inhibition value for entry CCCCN(CCCC)CCNC(=O)c1cc(OC(F)(F)F)ccc1O
93%

// next record Cn1nc(-c2cccc(CNCc3ccccc3)c2)c2cnc(NC3CCCC3)nc21
85%

// next record CC(C)c1ccc(NC(=O)c2ccc(CN3CCCN(Cc4cccc(O)c4)CC3)cc2)cc1.O=C(O)C(F)(F)F
100%

// next record COc1cccc(-c2cnc(N)c(-c3nc4cc(Cl)c(F)cc4[nH]3)c2)c1
100%

// next record CS(=O)(=O)NCCCNCc1ccc(-c2ccc(-c3nc4cc(C(F)(F)F)ccc4[nH]3)s2)cc1.O=C(O)C(F)(F)F
99%

// next record O=C(CCNc1ccnc(NCC2CCCCC2)n1)Nc1ccccc1.O=C(O)C(F)(F)F
95%
